Values were extracted from patent US7271165B2.

Test system: E. faecalis
Test description: MIC assay, E. faecalis
Format: cell-based, Enterococcus faecalis
Observable: MIC (μg/mL) E. faecalis (µg/mL)
Quick note: give the figure in µg/mL, leave out the unit.

Entry under review: CO[C@H]1/C=C/O[C@@]2(C)Oc3c(C)c(O)c4c(=O)c(c5oc6cc(N7CC8CCC(C7)N8)cc(O)c6nc-5c4c3C2=O)NC(=O)/C(C)=C\C=C\[C@H](C)[C@H](O)[C@@H](C)[C@@H](O)[C@@H](C)[C@H](OC(C)=O)[C@@H]1C [Compound 10] . Reported MIC (μg/mL) E. faecalis?
1

Entry under review: CO[C@H]1/C=C/O[C@@]2(C)Oc3c(C)c(O)c4c(=O)c(c5oc6cc(N7CCC(N8CCOCC8)CC7)cc(O)c6nc-5c4c3C2=O)NC(=O)/C(C)=C\C=C\[C@H](C)[C@H](O)[C@@H](C)[C@@H](O)[C@@H](C)[C@H](OC(C)=O)[C@@H]1C [Compound 9] . Reported MIC (μg/mL) E. faecalis?
2

Entry under review: CCOc1c(N2CCN(CC)CC2)ccc2nc3c4c5c6c(C)c(O)c4c(=O)c(c-3oc12)NC(=O)C(C)=CC=CC(C)C(O)C(C)C(O)C(C)C(O)C(C)C(OC)C=COC(C)(O6)C5=O (stereo not shown) [Compound 91] . Reported MIC (μg/mL) E. faecalis?
0.5

Entry under review: CO[C@H]1/C=C/O[C@@]2(C)Oc3c(C)c(O)c4c(=O)c(c5oc6cc(N7CCC(NC(=O)OC(C)C)CC7)cc(O)c6nc-5c4c3C2=O)NC(=O)/C(C)=C\C=C\[C@H](C)[C@H](O)[C@@H](C)[C@@H](O)[C@@H](C)[C@H](OC(C)=O)[C@@H]1C [Compound 22] . Reported MIC (μg/mL) E. faecalis?
4

* * *

Tested on: H. flu
Type: cell-based, H. influenza
Assay setup: H. flu
Observable: MIC (μg/mL) H. flu (µg/mL)
Quick note: give the figure in µg/mL, leave out the unit.

Entry under review: COC1C=COC2(C)Oc3c(C)c(O)c4c(=O)c(c5oc6cc(N7CCC(NC(=O)N8CCC(NC(=O)SC)CC8)CC7)cc(O)c6nc-5c4c3C2=O)NC(=O)C(C)=CC=CC(C)C(O)C(C)C(O)C(C)C(OC(C)=O)C1C (centres unmarked) . Reported MIC (μg/mL) H. flu?
2

Entry under review: COC1C=COC2(C)Oc3c(C)c(O)c4c(=O)c(c5oc6cc(N7CCC(NC(=O)OC(C)(C)C)CC7)cc(O)c6nc-5c4c3C2=O)NC(=O)C(C)=CC=CC(C)C(O)C(C)C(O)C(C)C(OC(C)=O)C1C (centres unmarked) . Reported MIC (μg/mL) H. flu?
1

* * *

Please provide measured MIC (μg/mL) H. flu for the entries that follow.
Tested on: H. flu
Type: cell-based, H. influenza
Assay setup: H. flu
Quick note: give the figure in µg/mL, leave out the unit.

Entry under review: `CO[C@H]1/C=C/O[C@@]2(C)Oc3c(C)c(O)c4c(=O)c(c5oc6cc(N7CCC(C(N)=O)CC7)cc(O)c6nc-5c4c3C2=O)NC(=O)/C(C)=C\C=C\[C@H](C)[C@H](O)[C@@H](C)[C@@H](O)[C@@H](C)[C@H](O)[C@@H]1C` . Reported MIC (μg/mL) H. flu?
0.25

Entry under review: CCOc1c(N2CCN(CCOC)CC2)ccc2nc3c4c5c6c(C)c(O)c4c(=O)c(c-3oc12)NC(=O)C(C)=CC=CC(C)C(O)C(C)C(O)C(C)C(O)C(C)C(OC)C=COC(C)(O6)C5=O (stereo not shown) . Reported MIC (μg/mL) H. flu?
0.5

Entry under review: `CCOC(=O)NC1CCN(c2ccc3nc4c5c6c7c(C)c(O)c5c(=O)c(c-4n(C)c3c2)NC(=O)/C(C)=C\C=C\[C@H](C)[C@H](O)[C@@H](C)[C@@H](O)[C@@H](C)[C@H](OC(C)=O)[C@H](C)[C@@H](OC)/C=C/O[C@@](C)(O7)C6=O)CC1` . Reported MIC (μg/mL) H. flu?
0.25

Entry under review: COC1C=COC2(C)Oc3c(C)c(O)c4c(=O)c(c5oc6cc(N7CCN(CC8CC8)CC7)cc(O)c6nc-5c4c3C2=O)NC(=O)C(C)=CC=CC(C)C(O)C(C)C(O)C(C)C(O)C1C (stereo not shown) . Reported MIC (μg/mL) H. flu?
0.25
